Tested on: Oryza sativa (ORYSA)
Format: in vivo
Conditions: crop plant compatibility, 80 g/ha, effect in comparison to untreated controls
Post-emergence action against ORYSA in % values by entry
The reply should be a number in %, with the unit left off.

Solved entries (count: 4):
C=C(COC(=O)COc1nn(-c2ccccn2)c(-c2ccc(F)nc2)c1Br)C(=O)OC = 0
COC(=O)[C@H](C)COC(=O)COc1nn(-c2ccccn2)c(-c2cncc(F)c2)c1Cl [Example I-192] = 0
O=C(O)COc1nn(-c2ccnc(F)c2)c(-c2ccc(F)nc2)c1Br = 0
CCOC(=O)COc1nn(-c2ccnc(F)c2)c(-c2ccc(F)nc2)c1Br = 0

Q: Fill in the blank: the reported Post-emergence action against ORYSA in % of COC(=O)CCOC(=O)COc1nn(-c2ccccn2)c(-c2ccc(Cl)nc2)c1Cl is ____.
A: 0

Q: Same thing, different compound: COC(=O)[C@H](C)COC(=O)COc1nn(-c2ccccn2)c(-c2ccc(F)nc2)c1Br
A: 0

Q: What would you report for CCOC(=O)CCNC(=O)CSc1nn(-c2ccccn2)c(-c2cncc(F)c2)c1Br ?
A: 20

Q: What would you report for O=C(O)C1CCN(C(=O)COc2nn(-c3ccccn3)c(-c3ccc(F)nc3)c2Br)CC1 ?
A: 0
